measurement name: melting point

Check out these entries, answers already filled in.
INSERT INTO assay_data (compound_string, reading) VALUES
  ('Nc1nnc(-c2cnn(-c3ccc(Cl)cc3)c2N)s1', '238 to 240 °C'),
  ('Nc1nnc(-c2cnn(-c3ccc([N+](=O)[O-])cc3)c2)s1', '331 to 333 °C'),
  ('Nc1nnc(-c2cnn(-c3ccc(Br)cc3)c2)s1', '340 to 341 °C'),
  ('Nc1nnc(-c2cnn(-c3ccc(F)cc3)c2N)s1', '251 to 253 °C'),
  ('Nc1nnc(-c2cnn(-c3ccc(Cl)c(Cl)c3)c2N)s1', '258 to 260 °C'),
  ('Nc1nnc(-c2cnn(-c3cccc(F)c3)c2N)s1', '285 to 286 °C'),
  ('COc1ccc(-n2cc(-c3nnc(N)s3)cn2)cc1', '298 to 300 °C'),
  ('Nc1nnc(-c2cnn(-c3ccc(Cl)cc3)c2)s1', '328 to 330 °C'),
  ('Nc1nnc(-c2cnn(-c3ccc(F)cc3)c2)s1', '335 to 337 °C'),
  ('Nc1nnc(-c2cnn(-c3cccc(F)c3)c2)s1', '302 to 303 °C');

**Query** Report measured melting point; entry is Nc1nnc(-c2cnn(-c3cc(Cl)cc(Cl)c3)c2)s1
**Result** 283 to 285 °C

**Query** // fetch melting point given entry Nc1nnc(-c2cnn(-c3cccc(Cl)c3)c2N)s1
**Result** 289 to 291 °C

**Query** Please look at this compound and report its melting point: Nc1nnc(-c2cnn(-c3ccc(Cl)c(Cl)c3)c2)s1
**Result** 313 to 315 °C

**Query** Quote melting point reported for Nc1nnc(-c2cnn(-c3ccc([N+](=O)[O-])cc3)c2N)s1 please.
**Result** 321 to 323 °C

**Query** Answer with reported melting point of Nc1nnc(-c2cnn(-c3ccccc3)c2N)s1
**Result** 131 to 132 °C

**Query** Kindly indicate its recorded melting point. Item: Nc1nnc(-c2cnn(-c3cccc(Br)c3)c2N)s1
**Result** 245 to 246 °C

**Query** Please supply the value of reported melting point for the item Nc1nnc(-c2cnn(-c3cccc(Cl)c3)c2)s1
**Result** 310 to 311 °C

**Query** Could you please provide reported melting point for Nc1nnc(-c2cnn(-c3cccc(Br)c3)c2)s1 ? Thanks!
**Result** 301 to 303 °C

**Query** Supply melting point value. Item: Nc1nnc(-c2cnn(-c3ccc(Br)cc3)c2N)s1
**Result** 286 to 287 °C

**Query** Answer with the recorded melting point for the compound listed here: COc1ccc(-n2ncc(-c3nnc(N)s3)c2N)cc1
**Result** 303 to 305 °C

**Query** Note down melting point recorded for Nc1nnc(-c2cnn(-c3ccccc3)c2)s1
**Result** 289 to 291 °C

**Query** Report melting point, nothing else, for this compound: Nc1nnc(-c2cnn(-c3ccc(Cl)cc3Cl)c2N)s1
**Result** 165 to 167 °C

**Query** Write down melting point measured for item Nc1nnc(-c2cnn(-c3cc(Cl)cc(Cl)c3)c2N)s1
**Result** 299 to 300 °C

**Query** # return recorded melting point for input Nc1nnc(-c2cnn(-c3ccc(Cl)cc3Cl)c2)s1
**Result** 284 to 285 °C
